Target: Potassium voltage-gated channel subfamily KQT member 2 (Rattus norvegicus) (UniProt O88943)
Sequence (O88943 whole entry, looked up): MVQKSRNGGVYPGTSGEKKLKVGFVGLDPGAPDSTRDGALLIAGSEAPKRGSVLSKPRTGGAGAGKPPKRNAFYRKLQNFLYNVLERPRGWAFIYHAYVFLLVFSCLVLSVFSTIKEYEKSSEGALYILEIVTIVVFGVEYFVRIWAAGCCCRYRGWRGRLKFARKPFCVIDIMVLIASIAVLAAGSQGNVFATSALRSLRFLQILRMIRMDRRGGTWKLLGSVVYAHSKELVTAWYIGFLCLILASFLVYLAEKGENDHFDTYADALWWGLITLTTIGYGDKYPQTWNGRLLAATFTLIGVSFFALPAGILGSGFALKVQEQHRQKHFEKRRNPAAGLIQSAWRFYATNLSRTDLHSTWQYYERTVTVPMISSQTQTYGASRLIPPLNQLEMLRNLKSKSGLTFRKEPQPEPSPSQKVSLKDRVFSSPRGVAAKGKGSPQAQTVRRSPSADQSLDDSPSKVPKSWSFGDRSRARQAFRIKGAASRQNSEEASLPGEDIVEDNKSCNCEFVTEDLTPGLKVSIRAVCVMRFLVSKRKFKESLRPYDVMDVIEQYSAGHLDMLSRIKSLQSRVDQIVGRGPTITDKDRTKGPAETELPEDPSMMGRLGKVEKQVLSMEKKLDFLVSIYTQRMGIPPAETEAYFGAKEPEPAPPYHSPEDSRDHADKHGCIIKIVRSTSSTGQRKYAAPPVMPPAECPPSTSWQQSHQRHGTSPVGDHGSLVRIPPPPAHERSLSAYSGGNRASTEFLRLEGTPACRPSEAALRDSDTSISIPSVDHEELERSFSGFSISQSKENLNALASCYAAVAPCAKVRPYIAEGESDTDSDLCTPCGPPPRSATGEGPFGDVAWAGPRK
Assay: rat KCNQ2 channel potentiation, selectivity assay for KCNQ1 potentiator project, KCNQ2-CHO-K1 cells (AID 493009);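 also: assay conditions were tuned for KCNQ1 rather than KCNQ2 modulators; signal is max minus min fluorescence divided by baseline after thallium stimulus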
Settings: FluxOR thallium flux fluorescence, at 10 µM, scaled: buffer 0, activator control 100
Active and inactive are the calls of the source.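 The calls were made as follows: active = mean duplicate potentiation above the buffer control mean plus 5 SD of buffer wells; inactive = the rest.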
Outcomes: label 1 = active, label 0 = inactive

>  <compound>
COc1cccc(C=NCC(C)N=Cc2cccc(OC)c2O)c1O (stereo unspecified)

>  <class_assignment>
label 0

$$$$
>  <compound>
O=C(CSc1nnc(NC(=O)C2CCC2)s1)Nc1ccc(N2CCOCC2)cc1

>  <class_assignment>
label 0

$$$$
>  <compound>
Cc1ccc(NC(=S)c2nc3ccccc3s2)cc1

>  <class_assignment>
label 0

$$$$
>  <compound>
Cn1nccc1C(=O)NC(=S)Nc1cc(Cl)cc(Cl)c1

>  <class_assignment>
label 1

$$$$
>  <compound>
Cc1ccc(-c2nnc(SCC(=O)N/N=C/c3ccccc3C(=O)O)n2-c2ccc(Cl)cc2)cc1

>  <class_assignment>
label 0

$$$$
>  <compound>
CC(C)(C)NCC(O)COc1ccccc1C(C)(C)C (stereo unspecified)

>  <class_assignment>
label 0

$$$$

Data credit: PubChem BioAssay
